Values from ChEMBL document CHEMBL1201862

System: HL-60
Experiment: NCI tumour cell line growth inhibition, 48 h
The source made the active and inactive calls. Rule as the data show it: active = GI50 up to about 1.1 µM and inactive = higher.
Just give me one of these, please: class 1 = active, class 0 = inactive

// query How did this test come out for Cc1nc2c(n1CCN(C)C)C(=O)c1ccccc1C2=O ?
// result class 0

New cases:
// query How did this test come out for C/C=C1\CN2CCc3c([nH]c4ccccc34)C2C=C1CCO (configuration not stated) ?
// result class 0

// query How did this test come out for CCCOc1ccc2sc(NC(=O)c3cc([N+](=O)[O-])cc([N+](=O)[O-])c3)nc2c1 ?
// result class 0

###

System: COLO 205
Test: NCI tumour cell line growth inhibition, 48 h
Active and inactive are the calls of the source. Rule as the data show it: active = GI50 up to about 1.1 µM and inactive = higher.
Just give me one of these, please: yes for active, no for inactive

Some solved cases for reference:
// query How did this test come out for NC(=O)CCC(NC(=O)c1cccc2c(=O)c3ccccc3[nH]c12)C(=O)O (centres undefined) ?
// result no

// query How did this test come out for COc1cc2c(cc1OC)C1Cc3cc(OC)c(OC)cc3C(C2)N1C ?
// result no

// query How did this test come out for CCOC(=O)c1ccc(-c2cccs2)n1C ?
// result no

New cases:
// query How did this test come out for COC(=O)CCC(C)[C@H]1CCC2C3C(C[C@H](OC(C)=O)[C@@]21C)[C@@]1(C)CCC2(C[C@H]1C[C@H]3OC(C)=O)OOC1(CCCCC1)OO2 (some centres undefined) ?
// result no

// query How did this test come out for CCC(C(=O)O)c1ccc(OC)cc1 (centres undefined) ?
// result no

// query How did this test come out for COc1cc(/C=C/c2nc(N)nnc2C)cc(OC)c1OC ?
// result no

// query How did this test come out for COc1cc2oc3c(c(=O)c2c(O)c1/C=C/C(C)C)C(C=C(C)C)Oc1cc(O)ccc1-3 (centres undefined) ?
// result no

// query How did this test come out for N#Cc1c(N)n(C2OC(CO)C(O)C2O)c2ncnc(N)c12 (centres undefined) ?
// result yes

// query How did this test come out for C/C=C1\CN2CCc3c([nH]c4ccccc34)C2C=C1CCO (centres undefined) ?
// result no

// query How did this test come out for N[C@H](C(=O)O)[C@@H]1CC(Cl)=NO1 [ACIVICIN] ?
// result no

// query How did this test come out for Nc1cc(N2CCOCC2)nc(=O)n1-c1ccccc1 ?
// result no

// query How did this test come out for COc1cccc(/C=C2\S/C(=N/Nc3nc(C)c(C)s3)NC2=O)c1O ?
// result no

// query How did this test come out for Cn1ncc2[nH]cnc2c1=S ?
// result no

// query How did this test come out for S=c1nc2[nH]c3ccc(Br)cc3c2n[nH]1 ?
// result no

// query How did this test come out for COc1ccc2c(c1)N=C1CSC(c3cccc(Br)c3)N1C2 (centres undefined) ?
// result no

###

GI50 values by entry
Test system: SNB-19
Assay: NCI tumour cell line growth inhibition, 48 h
Calls of active or inactive are those of the source. Rule as the data show it: active = GI50 up to about 1.1 µM and inactive = higher.

// query // returns reported GI50 for input O=C(O)C1=CCCc2ccc3ccccc3c21
// result > 100 µM (inactive)

// query // returns reported GI50 for input COc1cccc(/C=C2\S/C(=N/Nc3nc(C)c(C)s3)NC2=O)c1O
// result > 100 µM (inactive)

// query // returns reported GI50 for input COc1ccc(CCCCl)c(C2=NCCc3ccccc32)c1
// result 14.8 µM (inactive)

// moving on: another record for GI50
// query // returns reported GI50 for input OCCN(CCO)CCn1cnc2c(NCc3ccccc3)ncnc21
// result > 100 µM (inactive)

###

Test system: KM12
Assay: NCI tumour cell line growth inhibition, 48 h
Active and inactive are the calls of the source. Cut-off read from the data, not from the text of the source: active = GI50 up to about 1.1 µM and inactive = higher.
Just give me one of these, please: active, inactive

Some solved cases for reference:
// query How did this test come out for CCOC(=O)c1ccc(-c2cccs2)n1C ?
// result inactive

// query How did this test come out for Clc1ccc(OCc2nnc3n2N=C(c2ccc(Br)cc2)CS3)cc1 ?
// result inactive

// query How did this test come out for CC1(C(=O)NCCN(CCNC(=O)C2(C)CC3(C)CC(C)(C2)C(=O)NC3=O)CCNC(=O)C2(C)CC3(C)CC(C)(C2)C(=O)NC3=O)CC2(C)CC(C)(C1)C(=O)NC2=O (configuration not stated) ?
// result inactive

New cases:
// query How did this test come out for O=C1c2cc3ccccc3cc2C2(c3ccc(Cl)cc3)N[C@H]3CCCC[C@@H]3N12 (some centres not stated) ?
// result inactive

// query How did this test come out for Cc1ccc(S(=O)(=O)OCOS(=O)(=O)c2ccc(C)cc2)cc1 ?
// result inactive

// query How did this test come out for CC1=C(N2CC2)C(=O)c2nc3n(c2C1=O)CCC3OC(=O)CCl (configuration not stated) ?
// result active

// query How did this test come out for Cc1nc(-c2ccccc2)c(C)n2c1nc1ccccc12 ?
// result inactive

// query How did this test come out for C/C=C\C(CC(=O)O)CN1CCC2=C(C1)C(S(=O)(=O)C(F)(F)F)c1ccccc12 (configuration not stated) ?
// result inactive

###

GI50 values by entry
System: HT-29
Experiment: NCI tumour cell line growth inhibition, 48 h
The source made the active and inactive calls. Rule as the data show it: active = GI50 up to about 1.1 µM and inactive = higher.

// query // returns reported GI50 for input Cc1nn(C(=O)CC(=O)Nc2ccc(Cl)cc2)c(C)c1/N=N/c1ccccc1C(=O)O
// result > 100 µM (inactive)

New cases:
// query // returns reported GI50 for input C#C[C@]1(O)CCC2C3CCc4cc(Oc5nc(F)nc(-c6c7cc8ccccc8cc7c7n6CCS7)n5)ccc4C3CCC21C (some centres undefined)
// result 26.2 µM (inactive)

// query // returns reported GI50 for input C=CC1(C)CCC2C(=CCC3C(C)(COC4OC(C(=O)O)C(O)C(O)C4O)C(O)CCC23C)C1.C=CC1(C)CCC2C(=CCC3C2(C)CC(O)C(O)C3(C)COC2OC(C(=O)O)C(O)C(O)C2O)C1 (centres undefined)
// result > 100 µM (inactive)

// query // returns reported GI50 for input O=C1CSC2(CC(/C=C/c3ccccc3O)=NN2c2cccc(S(=O)(=O)O)c2)N1c1nc2ccccc2s1 (centres undefined)
// result 45.4 µM (inactive)

###

Tested on: Malme-3M
Assay: NCI tumour cell line growth inhibition, 48 h
Activity calls are given as the source filed them. Cut-off read from the data, not from the text of the source: active = GI50 up to about 1.1 µM and inactive = higher.
Just give me one of these, please: active, inactive

Some solved cases for reference:
// query How did this test come out for Nn1c(CCCCCCCCc2nnc(COc3ccc(Cl)cc3Cl)n2N)nnc1COc1ccc(Cl)cc1Cl ?
// result inactive

// query How did this test come out for CNC(=O)OCc1c2ccncc2c(C)c2c1[nH]c1ccc(OC)cc12 ?
// result active

// query How did this test come out for Cc1nn(C(=O)Cc2ccccc2)c2c1C(c1ccc(Cl)cc1)SC(=N)N2 (stereo not given) ?
// result inactive

// query How did this test come out for C=CC1(C)CCC2C(=CCC3C(C)(COC4OC(C(=O)O)C(O)C(O)C4O)C(O)CCC23C)C1.C=CC1(C)CCC2C(=CCC3C2(C)CC(O)C(O)C3(C)COC2OC(C(=O)O)C(O)C(O)C2O)C1 (stereo not given) ?
// result inactive

// query How did this test come out for C/C1=C\[C@H](C)C[C@H](C)OC(=O)C[C@H](c2ccc(O)cc2)NC(=O)[C@H](Cc2ccc(O)c(I)c2)N(C)C(=O)[C@H](C)NC(=O)[C@@H](C)C1 ?
// result active

// query How did this test come out for COC(=O)C1=C(O)C(C(=O)OC)[C@]2(O)[C@H](C(=O)OC)[C@H]1C[C@@H](c1ccc(O)cc1)[C@H]2C(=O)OC (stereo not given in full) ?
// result inactive

// query How did this test come out for O=C1c2c(c(-c3ccccc3)c(-c3ccccc3)c(-c3ccccc3)c2-c2ccccc2)C(=O)N1c1cccc(Br)c1 ?
// result inactive

// query How did this test come out for Cc1cc(N(CCC#N)CCC#N)ccc1/N=N/c1ccc(S(N)(=O)=O)cc1 ?
// result inactive

// query How did this test come out for C/C(=N\Nc1nc2ccccc2[nH]1)c1ncccn1 ?
// result active

Consider now this further compound.
// query How did this test come out for CC(=O)c1ccc2c(c1)C(=O)c1sc(C(C)=O)cc1C2=O ?
// result active

###

Tested on: NCI-H460
Experiment: NCI tumour cell line growth inhibition, 48 h
The source made the active and inactive calls. No stated cut-off is given here; in the data, active = GI50 up to about 1.1 µM and inactive = higher.
READOUT LABEL: GI50

// query // returns reported GI50 for input C/C=C1\CN2CCc3c([nH]c4ccccc34)C2C=C1CCO (stereo not given)
// result > 340 µM (inactive)

// query // returns reported GI50 for input Clc1ccc(OCc2nnc3n2N=C(c2ccc(Br)cc2)CS3)cc1
// result 17.7 µM (inactive)

New cases:
// query // returns reported GI50 for input CSc1c(CC(=O)O)n(Cc2ccccc2)c2ccccc12
// result 60.8 µM (inactive)

// query // returns reported GI50 for input COc1cccc(NC(=O)CC(=O)N2N=C(N3c4ccccc4Sc4ccccc43)CC2c2ccccc2)c1 (stereo not given)
// result > 100 µM (inactive)

// query // returns reported GI50 for input COc1ccc(NS(=O)(=O)c2ccc3ncn(NS(=O)(=O)c4ccc(I)cc4)c(=O)c3c2)cc1
// result > 100 µM (inactive)
